Data provenance: paper doi:10.1101/2021.10.07.463234v2

Listing of recorded %inhibition by entry.
molecular target: SARS-CoV-2 Mac1 (Severe acute respiratory syndrome coronavirus 2, UniProt P0DTD1); experiment: biochemical; settings: 100 µM; inhibitor
Where a name gives a salt, the structure may show the parent alone.
Recorded endpoint: %inhibition

COCCc1ccc(OCC(O)CNC(C)C)cc1 (centres unmarked) [Metoprolol Tartrate]; 45.82%
NCCc1c[nH]cn1 [Histamine 2HCl]; 6.627%
Cc1cc(NS(=O)(=O)c2ccc(N)cc2)no1 [Sulfamethoxazole]; 24.84%
COc1ccc2[nH]c([S@@+]([O-])Cc3ncc(C)c(OC)c3C)nc2c1 [NEXIUM (esomeprazole magnesium)]; 21.09%
O=C(O)c1ccccc1O [Salicylic acid]; 1.324%
